src = the MegaScale stability set (Tsuboyama et al. 2023)

Measured folding stability dG of individual entries
B1: EHEE_rd4_0086 (parent)
chain: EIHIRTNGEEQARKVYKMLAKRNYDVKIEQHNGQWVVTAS

Variants of: B1
experiment_summary: folding stability dG (cDNA display proteolysis); higher = more stable
condition_details: PBS, room temperature
property_name: folding stability dG (kcal/mol)

# var, data_value
data = [
    ("L19F", 1.72),
    ("N23G", 3.46),
    ("Q30G", 0.999),
    ("H3E", 2),
    ("W35F", 1.01),
    ("K17P", -0.583),
    ("K14L", 1.91),
    ("A39N", 0.642),
    ("G8T", 2.86),
    ("Q11R", 1.51),
    ("K14H", 1.53),
    ("L19V", -0.352),
    ("H31R", 1.98),
    ("E29W", 2.33),
    ("Y16A", 2.76),
    ("N23L", 1.74),
    ("V36H", 1.56),
    ("Y16H", 1.03),
    ("Y24L", 1.69),
    ("A12F", -0.019),
    ("I28V", 1.29),
    ("G8E", 2.06),
]
